The following compounds were reported with IC50 values on 17-beta-hydroxysteroid dehydrogenase 13 (Homo sapiens) in different studies.

# annotated cases, reported IC50 shown
O=C(Nc1scnc1C(=O)NC12C[C@H]3C[C@@H](C1)C[C@@H](C2)C3)c1cc(Cl)c(O)c(Cl)n1 ... ≤ 100 nM
O=C(Nc1ncsc1C(=O)NCc1ccccc1C(F)(F)F)c1cc(F)c(O)c(Cl)c1 ... ≤ 100 nM
O=C(Nc1cccc2ncn(C(CN3CCOCC3)c3ccccc3)c(=O)c12)c1cc(Cl)c(O)c(Cl)c1 (stereo not shown) ... 100 to 500 nM
CS(=O)(=O)c1cccc(Cn2cnc3cccc(NC(=O)c4cc(Cl)c(O)c(Cl)c4)c3c2=O)c1 ... 500 to 1000 nM
O=C(Nc1cccc2ncn(Cc3cccc(C(F)(F)F)c3)c(=O)c12)c1cc(Cl)c(O)c(Cl)c1 ... ≤ 100 nM
Cn1nc(NC(=O)c2cc(Cl)c(O)c(Cl)n2)c2c(=O)n(Cc3ccccc3OC(F)(F)F)cnc21 ... 100 to 500 nM

Kindly consider the entry below.
For the compound Cc1nc2c(F)ccc(NC(=O)c3cc(Cl)c(O)c(Cl)n3)c2c(=O)n1Cc1ncccc1C(F)(F)F , the measured IC50 on 17-beta-hydroxysteroid dehydrogenase 13 (Homo sapiens) was 100 to 500 nM

---

The following compounds were reported with pIC50 values on 17-beta-hydroxysteroid dehydrogenase 13 (Homo sapiens, UniProt Q7Z5P4) in different studies.
pIC50: −log10 of the molar value.

# annotated cases, reported pIC50 shown
Cc1nc2c(F)ccc(NC(=O)c3cc(Cl)c(O)c(Cl)n3)c2c(=O)n1Cc1ccccc1OC(F)(F)F ... ≥ 7.00
Cn1ncc(C(=O)NCc2ccccc2C(F)(F)F)c1NC(=O)c1cc(Cl)c(O)c(Cl)n1 ... 5.00 to 6.00
O=C(Nc1cccc2ncn(Cc3ncccc3C(F)(F)F)c(=O)c12)c1cc(Cl)c(O)c(Cl)c1 ... ≥ 7.00
O=C(Nc1scnc1C(=O)NCc1ccc2c(c1)OCO2)c1cc(Cl)c(O)c(Cl)n1 ... 6.30 to 7.00
O=C(Nc1sc(C(F)(F)F)nc1C(=O)NCc1ccccc1OC(F)(F)F)c1cc(Cl)c(O)c(Cl)c1 ... 6.30 to 7.00

For the compound COC(=O)C(NC(=O)c1scnc1NC(=O)c1ccc(O)c(Cl)c1)c1ccccc1 (stereo in doubt) , the measured pIC50 on 17-beta-hydroxysteroid dehydrogenase 13 (Homo sapiens, UniProt Q7Z5P4) was 6.30 to 7.00

For the compound O=C(Nc1scnc1C(=O)NCC1(F)CC1)c1cc(Cl)c(O)c(Cl)n1 , the measured pIC50 on 17-beta-hydroxysteroid dehydrogenase 13 (Homo sapiens, UniProt Q7Z5P4) was 5.00 to 6.00

For the compound O=C(Nc1scnc1C(=O)NCc1ccccc1OC(F)(F)F)c1cc(Cl)c(=O)[nH]n1 , the measured pIC50 on 17-beta-hydroxysteroid dehydrogenase 13 (Homo sapiens, UniProt Q7Z5P4) was 6.00 to 6.30

For the compound O=C(Nc1cccc2ncn(Cc3ccc(F)cc3)c(=O)c12)c1cc(Cl)c(O)c(Cl)n1 , the measured pIC50 on 17-beta-hydroxysteroid dehydrogenase 13 (Homo sapiens, UniProt Q7Z5P4) was 6.30 to 7.00

For the compound O=C(Nc1nccc2ncn(Cc3ccccc3OC(F)(F)F)c(=O)c12)c1cc(Cl)c(O)c(Cl)c1 , the measured pIC50 on 17-beta-hydroxysteroid dehydrogenase 13 (Homo sapiens, UniProt Q7Z5P4) was 5.00 to 6.00

---

The following molecules were reported with IC50 values on 17-beta-hydroxysteroid dehydrogenase 13 (Homo sapiens) in different studies.

# annotated cases, reported IC50 shown
Cc1nc2c(F)ccc(NC(=O)c3cc(Cl)c(O)c(Cl)c3)c2c(=O)n1Cc1ccccc1OC(F)(F)F ... ≤ 100 nM
Cc1ccc(NC(=O)c2cc(Cl)c(O)c(Cl)c2)c2c(=O)n(Cc3cccc(C(F)(F)F)n3)c(C)nc12 ... 500 to 1000 nM
Cn1ccc(Cn2cnc3cccc(NC(=O)c4cc(Cl)c(O)c(Cl)c4)c3c2=O)n1 ... 500 to 1000 nM

For the molecule O=C(Nc1scnc1C(=O)N1CCC2(CCCCC2)C1)c1cc(Cl)c(O)c(Cl)n1 , the measured IC50 on 17-beta-hydroxysteroid dehydrogenase 13 (Homo sapiens) was 1000 to 10000 nM

For the molecule O=C(Nc1cccc2nc(C(F)(F)F)n(C3CC3c3ccccc3)c(=O)c12)c1cc(Cl)c(O)c(Cl)n1 (stereo not drawn) , the measured IC50 on 17-beta-hydroxysteroid dehydrogenase 13 (Homo sapiens) was 1000 to 10000 nM

For the molecule O=C(Nc1scnc1C(=O)NCc1ccccc1C(F)(F)F)c1cc(Cl)c(O)c(Cl)c1 , the measured IC50 on 17-beta-hydroxysteroid dehydrogenase 13 (Homo sapiens) was ≤ 100 nM

For the molecule O=C(Nc1ccc(F)c2ncn(Cc3ccccc3C(F)(F)F)c(=O)c12)c1cc(Cl)c(O)c(Cl)n1 , the measured IC50 on 17-beta-hydroxysteroid dehydrogenase 13 (Homo sapiens) was ≤ 100 nM

For the molecule Cc1nc2c(Cl)ccc(NC(=O)c3cc(Cl)c(O)c(Cl)c3)c2c(=O)n1Cc1ccccc1C(F)(F)F , the measured IC50 on 17-beta-hydroxysteroid dehydrogenase 13 (Homo sapiens) was ≤ 100 nM

For the molecule CS(=O)(=O)c1ccc(Cn2cnc3cccc(NC(=O)c4cc(Cl)c(O)c(Cl)c4)c3c2=O)cc1 , the measured IC50 on 17-beta-hydroxysteroid dehydrogenase 13 (Homo sapiens) was 1000 to 10000 nM

For the molecule Cc1ccc(NC(=O)c2cc(Cl)c(O)c(Cl)c2)c2c(=O)n(Cc3ccccc3C(F)(F)F)c(C)nc12 , the measured IC50 on 17-beta-hydroxysteroid dehydrogenase 13 (Homo sapiens) was ≤ 100 nM

For the molecule C[C@@H](c1cccc(F)c1)n1cnc2cccc(NC(=O)c3cc(Cl)c(O)c(Cl)c3)c2c1=O , the measured IC50 on 17-beta-hydroxysteroid dehydrogenase 13 (Homo sapiens) was ≤ 100 nM

For the molecule O=C(Nc1cccc2ncn(Cc3ccccc3OC(F)(F)F)c(=O)c12)c1cc(Cl)c(O)c(Cl)c1 , the measured IC50 on 17-beta-hydroxysteroid dehydrogenase 13 (Homo sapiens) was ≤ 100 nM

For the molecule O=C(Nc1ncsc1C(=O)NCCc1ccccc1F)c1ccc(O)c(C(F)(F)F)n1 , the measured IC50 on 17-beta-hydroxysteroid dehydrogenase 13 (Homo sapiens) was 100 to 500 nM

For the molecule Cn1c(=O)n(Cc2ccccc2C(F)(F)F)c(=O)c2c(NC(=O)c3cc(Cl)c(O)c(Cl)n3)cccc21 , the measured IC50 on 17-beta-hydroxysteroid dehydrogenase 13 (Homo sapiens) was 100 to 500 nM

For the molecule O=C(Nc1ncsc1C(=O)NC(C(=O)O)c1ccccc1)c1ccc(O)c(Cl)c1 (stereo in doubt) , the measured IC50 on 17-beta-hydroxysteroid dehydrogenase 13 (Homo sapiens) was 1000 to 10000 nM

---

The following compounds were reported with IC50 values on 17-beta-hydroxysteroid dehydrogenase 13 (Homo sapiens) in different studies.

Cn1cc(C(=O)NCc2ccccc2C(F)(F)F)c(NC(=O)c2cc(Cl)c(O)c(Cl)n2)n1 ... 100 to 500 nM
O=C(Nc1scnc1C(=O)NC(CO)c1ccccc1)c1ccc(O)c(Cl)c1 (stereo in doubt) ... ≤ 100 nM
O=C(Nc1n[nH]cc1C(=O)NCc1ccccc1C(F)(F)F)c1cc(Cl)c(O)c(Cl)c1 ... ≤ 100 nM

The compound listed as CC(C)(C)CCNC(=O)c1ncsc1NC(=O)c1cc(Cl)c(O)c(Cl)n1 shows IC50 equal to 100 to 500 nM

The compound listed as O=C(Nc1scnc1C(=O)NC1(c2ccccc2)CCC1)c1cc(Cl)c(O)c(Cl)n1 shows IC50 equal to ≤ 100 nM

The compound listed as CC(C)(C)CCNC(=O)c1ncsc1NC(=O)c1cc(Cl)c(O)c(Cl)c1 shows IC50 equal to 100 to 500 nM

The compound listed as Cc1nc2c(F)ccc(NC(=O)c3cc(Cl)c(O)c(Cl)c3)c2c(=O)n1[C@H]1CC[C@@H]1c1ccccc1 shows IC50 equal to ≤ 100 nM

The compound listed as Cc1nc2c(F)ccc(NC(=O)c3cc(Cl)c(O)c(Cl)c3)c2c(=O)n1C(C)c1ccccc1OC(F)(F)F (centres unmarked) shows IC50 equal to 100 to 500 nM
